system: Escherichia coli; experiment: Antimicrobial activity against Escherichia coli MTCC 443 by broth microdilution technique; format: functional
I'd appreciate it if you could supply MIC50 values for the items below.
Write it as a number; the unit µg/mL goes unstated.

## Task Give the value of MIC50 reported for the following: Cc1ccc2oc(-c3cnn(-c4ccc(F)c(F)c4)c3)nc2c1
## Result 500

## Task Give the value of MIC50 reported for the following: Cc1ccc2nc(-c3cnn(-c4ccc(F)c(F)c4)c3)oc2c1
## Result 200

## Task Give the value of MIC50 reported for the following: O/N=C(/c1cnn(-c2ccc(F)c(F)c2)c1)c1cc(Cl)ccc1O
## Result 12.5
